Cited source: patent US10106559B2

Jak2 tyrosine kinase (Homo sapiens (Human)) IC50 data
Sequence (O60674 whole entry): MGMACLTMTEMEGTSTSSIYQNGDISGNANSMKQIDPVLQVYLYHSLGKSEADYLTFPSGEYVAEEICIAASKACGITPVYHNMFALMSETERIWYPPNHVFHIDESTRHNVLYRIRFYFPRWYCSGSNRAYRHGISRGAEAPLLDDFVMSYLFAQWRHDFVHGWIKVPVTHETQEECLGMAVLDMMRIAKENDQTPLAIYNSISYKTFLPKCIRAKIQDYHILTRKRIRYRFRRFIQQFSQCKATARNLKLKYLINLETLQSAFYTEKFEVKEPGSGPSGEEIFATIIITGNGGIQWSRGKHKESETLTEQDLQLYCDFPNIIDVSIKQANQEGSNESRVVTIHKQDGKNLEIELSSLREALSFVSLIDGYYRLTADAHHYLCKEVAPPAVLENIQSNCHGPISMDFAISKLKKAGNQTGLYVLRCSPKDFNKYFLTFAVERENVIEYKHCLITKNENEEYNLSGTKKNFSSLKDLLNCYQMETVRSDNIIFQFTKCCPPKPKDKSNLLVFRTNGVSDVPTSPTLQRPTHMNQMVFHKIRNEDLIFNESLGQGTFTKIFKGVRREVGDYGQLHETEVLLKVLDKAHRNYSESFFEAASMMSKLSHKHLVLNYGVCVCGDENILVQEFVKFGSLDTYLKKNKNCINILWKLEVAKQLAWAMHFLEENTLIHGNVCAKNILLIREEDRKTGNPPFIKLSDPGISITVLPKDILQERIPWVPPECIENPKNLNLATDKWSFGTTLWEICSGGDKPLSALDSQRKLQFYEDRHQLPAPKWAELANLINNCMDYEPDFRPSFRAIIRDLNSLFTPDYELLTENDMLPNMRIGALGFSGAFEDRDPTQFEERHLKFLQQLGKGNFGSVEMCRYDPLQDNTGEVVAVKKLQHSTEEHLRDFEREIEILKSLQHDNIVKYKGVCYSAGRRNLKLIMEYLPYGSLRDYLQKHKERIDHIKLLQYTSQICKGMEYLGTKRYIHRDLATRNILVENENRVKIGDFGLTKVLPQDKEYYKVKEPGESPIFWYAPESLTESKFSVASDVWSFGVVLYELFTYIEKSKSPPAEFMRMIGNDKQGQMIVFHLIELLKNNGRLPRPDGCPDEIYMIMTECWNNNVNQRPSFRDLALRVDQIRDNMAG

Field: example entries. Status: answers known.
* Cc1c(-c2c(F)cc(C(N)=O)c3[nH]c4cc(C(C)(C)O)ccc4c23)cccc1-n1c(=O)[nH]c2cc(F)ccc2c1=O (single isomer, unassigned) [Example 51] | > 2000 nM
* Cc1c(-c2c(F)cc(C(N)=O)c3[nH]c4cc(C(C)(C)O)ccc4c23)cccc1-n1c(=O)[nH]c2c(F)cc(F)cc2c1=O [Example 49] | > 2000 nM

Continue with the compound presented below.
Data request: // fetch Jak2 tyrosine kinase (Homo sapiens (Human)) IC50 for Cc1c(-c2c(F)cc(C(N)=O)c3[nH]c4cc(C(C)(C)O)ccc4c23)cccc1-n1c(=O)[nH]c2c(Cl)cccc2c1=O (single isomer, unassigned) [Example 53]
Data returned: 2200 nM
